Target: Aurora kinase B (Homo sapiens, UniProt Q96GD4)
Sequence (Q96GD4 whole entry): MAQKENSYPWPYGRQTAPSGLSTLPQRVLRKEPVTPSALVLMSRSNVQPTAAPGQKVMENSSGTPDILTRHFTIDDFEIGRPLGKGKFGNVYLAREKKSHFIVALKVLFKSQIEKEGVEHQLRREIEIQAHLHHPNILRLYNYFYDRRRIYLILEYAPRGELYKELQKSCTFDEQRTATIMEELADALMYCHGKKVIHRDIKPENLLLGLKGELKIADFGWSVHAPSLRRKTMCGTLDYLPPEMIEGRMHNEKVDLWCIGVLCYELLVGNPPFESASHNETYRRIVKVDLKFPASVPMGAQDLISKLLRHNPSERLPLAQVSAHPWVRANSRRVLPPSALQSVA
Assay: Inhibition of human recombinant aurora-B expressed in Sf9 cells using tetra(LRRWSLG) as substrate after 80 mins by scintillation counting
Listed here are compounds together with their documented IC50.

compound | meas value
O=c1oc2c(O)c(O)cc3c(=O)oc4c(O)c(O)cc1c4c23 [ELLAGIC ACID] | 2500 nM

// IC50 lookup, compound = "CC(C)n1c2c(c3c1-c1ccccc1C3=O)C(=O)CCC2" , result: > 35000 nM

====

Target: Casein kinase II alpha/beta (Homo sapiens)
Sequence (P67870 whole entry): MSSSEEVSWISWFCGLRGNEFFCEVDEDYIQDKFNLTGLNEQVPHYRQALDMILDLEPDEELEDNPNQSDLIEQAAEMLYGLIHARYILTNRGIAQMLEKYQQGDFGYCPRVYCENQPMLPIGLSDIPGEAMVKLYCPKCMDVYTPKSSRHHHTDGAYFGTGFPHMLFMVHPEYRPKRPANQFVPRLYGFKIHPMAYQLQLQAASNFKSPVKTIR
Sequence (P68400 whole entry): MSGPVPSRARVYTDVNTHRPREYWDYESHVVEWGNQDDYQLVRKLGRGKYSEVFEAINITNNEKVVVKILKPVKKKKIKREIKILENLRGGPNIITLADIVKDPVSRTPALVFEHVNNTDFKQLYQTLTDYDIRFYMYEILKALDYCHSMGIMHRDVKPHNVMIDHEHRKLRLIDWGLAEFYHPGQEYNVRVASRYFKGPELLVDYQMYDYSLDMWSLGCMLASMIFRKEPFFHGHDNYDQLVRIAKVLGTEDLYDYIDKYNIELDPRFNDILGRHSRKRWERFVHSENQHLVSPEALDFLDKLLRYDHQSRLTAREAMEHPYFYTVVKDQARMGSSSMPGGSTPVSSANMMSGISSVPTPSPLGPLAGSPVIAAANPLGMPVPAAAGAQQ
observable: IC50 (µM)
Your answer is read as µM, so omit the unit and give the number.

The reported IC50 value, Casein kinase II alpha/beta (Homo sapiens), for CC(c1ccccc1)n1c2c(c3c1-c1ccccc1C3=O)C(=O)CCC2 (stereo unspecified) reads 4.66
